Test: Hemolytic activity
Type: cell-based, Male Donryu rats
Conditions: rat, red blood cells; 20 μg/ml, 37° C., 60 minutes; read-out: hemolytic ratio
measured-attribute: hemolysis at 1 h (%)
Number in %, nothing else.

GET /value?item= C=CCN1CCN(c2nc(OCCCCC)c3ccccc3n2)CC1.O=C(O)/C=C/C(=O)O [No. 5666, monofumarate, reference compound] &field=hemolysis at 1 h returns 38
